tested on: GSK3a (GST-full length GSK3a) (Homo sapiens, UniProt P49840)
Construct: GST-full length GSK3a [SignalChem G08-10G]; purchased SignalChem G08-10G
Sequence (P49840 whole entry): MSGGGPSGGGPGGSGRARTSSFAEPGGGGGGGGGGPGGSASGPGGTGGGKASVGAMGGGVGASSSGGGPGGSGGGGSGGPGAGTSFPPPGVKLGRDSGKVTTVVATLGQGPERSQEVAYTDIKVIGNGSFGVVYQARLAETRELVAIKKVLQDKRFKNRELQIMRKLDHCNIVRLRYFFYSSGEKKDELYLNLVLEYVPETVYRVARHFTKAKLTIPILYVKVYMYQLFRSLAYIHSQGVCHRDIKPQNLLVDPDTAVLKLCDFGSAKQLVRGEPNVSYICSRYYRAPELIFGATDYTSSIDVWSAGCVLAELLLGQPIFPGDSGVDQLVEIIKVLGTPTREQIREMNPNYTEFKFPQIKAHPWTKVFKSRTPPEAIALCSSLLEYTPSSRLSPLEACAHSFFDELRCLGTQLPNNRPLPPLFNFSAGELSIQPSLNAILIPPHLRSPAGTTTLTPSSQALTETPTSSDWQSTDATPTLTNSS
test description: GSK3a TR-FRET kinase inhibition assay
Assay type: biochemical
experimental context: 1 mM ATP; Table 3; read-out: GSK3a TR-FRET 1 mM ATP Average IC50
Known IC50 of a selection of compounds

Below, 6 compounds whose answers are already recorded.
CC1(C)CC(=O)C2=C(C1)Nc1ncc(C(F)(F)F)c(C#N)c1C2(C)c1ccccc1 (single isomer, unassigned) [Compound 137B] = 1 to 5 µM
CC1(C)CC(=O)C2=C(C1)Nc1ncc(F)c(C(F)(F)F)c1C2(C)c1ccccc1 (single isomer, unassigned) [Compound 135A] = 0.1 to 1 µM
CC(C)(C)Cn1nccc1-c1cccc(C2(C)C3=C(CC(C)(C)CC3=O)Nc3ncc(F)cc32)c1 (single isomer, unassigned) [Compound 160A] = 0.1 to 1 µM
CC(C)(C)Cc1cnccc1-c1cccc(C2(C)C3=C(CC(C)(C)CC3=O)Nc3ncc(F)cc32)c1 (single isomer, unassigned) [Compound 168A] = 0.1 to 1 µM
CC1(C)CC(=O)C2=C(C1)Nc1ncc(F)c(C(F)(F)F)c1C2(C)c1ccccc1 (single isomer, unassigned) [Compound 135B] = 5 to 20 µM
COc1cncc(F)c1-c1cccc(C2(C)C3=C(CC(C)(C)CC3=O)Nc3ncc(C4CC4)cc32)c1 (single isomer, unassigned) [Compound 167B] = 1 to 5 µM

GSK3a (GST-full length GSK3a) (Homo sapiens, UniProt P49840) / IC50 / CC1(C)CC(=O)C2=C(C1)Nc1ncc(F)c(C3CC3)c1C2(C)c1ccccc1 (single isomer, unassigned) [Compound 125B] : value?
1 to 5 µM

Reported IC50 for GSK3a (GST-full length GSK3a) (Homo sapiens, UniProt P49840), given CC(C)n1cncc1-c1cccc(C2(C)C3=C(CC(C)(C)CC3=O)Nc3ncc(C(F)(F)F)cc32)c1 (single isomer, unassigned) [Compound 171A] ?
1 to 5 µM

Can you look up IC50 on GSK3a (GST-full length GSK3a) (Homo sapiens, UniProt P49840) for CC1(C)CC(=O)C2=C(C1)Nc1nccc(CC3CC3)c1C2(C)c1ccccc1 (single isomer, unassigned) [Compound 123A] ?
1 to 5 µM

Return IC50 measured with GSK3a (GST-full length GSK3a) (Homo sapiens, UniProt P49840) given this compound: CC1(C)CC(=O)C2=C(C1)Nc1ncc(F)cc1C2(C)c1ccccc1 (single isomer, unassigned) [Compound 107B]
1 to 5 µM

Query the reported IC50 for GSK3a (GST-full length GSK3a) (Homo sapiens, UniProt P49840); item: CC1(C)CC(=O)C2=C(C1)Nc1nccc(CC3CC3)c1C2(C)c1ccccc1 (single isomer, unassigned) [Compound 123B]
1 to 5 µM

Please provide the recorded IC50 for CC1(C)CC(=O)C2=C(C1)Nc1ncc(C(F)(F)F)c(C#N)c1C2(C)c1ccccc1 (single isomer, unassigned) [Compound 137A] , tested on GSK3a (GST-full length GSK3a) (Homo sapiens, UniProt P49840).
1 to 5 µM

Lab note: need IC50 with GSK3a (GST-full length GSK3a) (Homo sapiens, UniProt P49840) for entry CC1(C)CC(=O)C2=C(C1)Nc1nccc(C#N)c1C2(C)c1ccccc1 (single isomer, unassigned) [Compound 108A] , please look it up.
0.1 to 1 µM

Notebook: pull reported IC50 for GSK3a (GST-full length GSK3a) (Homo sapiens, UniProt P49840), entry CC1(C)CC(=O)C2=C(C1)Nc1ncc(C#N)cc1C2(C)c1ccccc1 (single isomer, unassigned) [Compound 109A]
1 to 5 µM

Item: CC1(C)CC(=O)C2=C(C1)Nc1ncccc1C2(C)c1cccc(-c2ccncc2N2CCCC2)c1 (single isomer, unassigned) [Compound 158A] Test system: GSK3a (GST-full length GSK3a) (Homo sapiens, UniProt P49840) Read-out: IC50 Value: ?
0.1 to 1 µM

# returns recorded IC50 (system: GSK3a (GST-full length GSK3a) (Homo sapiens, UniProt P49840)) for COc1cncc(F)c1-c1cccc(C2(C)C3=C(CC(C)(C)CC3=O)Nc3ncc(C)cc32)c1 (single isomer, unassigned) [Compound 155A]
0.1 to 1 µM

State its IC50 on GSK3a (GST-full length GSK3a) (Homo sapiens, UniProt P49840): CCC1(c2cccc(-c3c(F)cncc3OC)c2)C2=C(CC(C)(C)CC2=O)Nc2ncc(F)cc21 (single isomer, unassigned) [Compound 161B]
0.1 to 1 µM

Tell me reported IC50 for CC1(C)CC(=O)C2=C(C1)Nc1ncc(C(C)(C)C)cc1C2(C)c1ccccc1 (single isomer, unassigned) [Compound 124B] , tested with GSK3a (GST-full length GSK3a) (Homo sapiens, UniProt P49840).
5 to 20 µM

Data credit: patent US20260103465A1
